# system.under.test: HDAC2 (Homo sapiens)
# Construct: HDAC2 (full length, C-terminal His tag, BPS Bioscience, cat. #: 50002); purchased BPS Bioscience 50002
# Sequence (Q92769 whole entry): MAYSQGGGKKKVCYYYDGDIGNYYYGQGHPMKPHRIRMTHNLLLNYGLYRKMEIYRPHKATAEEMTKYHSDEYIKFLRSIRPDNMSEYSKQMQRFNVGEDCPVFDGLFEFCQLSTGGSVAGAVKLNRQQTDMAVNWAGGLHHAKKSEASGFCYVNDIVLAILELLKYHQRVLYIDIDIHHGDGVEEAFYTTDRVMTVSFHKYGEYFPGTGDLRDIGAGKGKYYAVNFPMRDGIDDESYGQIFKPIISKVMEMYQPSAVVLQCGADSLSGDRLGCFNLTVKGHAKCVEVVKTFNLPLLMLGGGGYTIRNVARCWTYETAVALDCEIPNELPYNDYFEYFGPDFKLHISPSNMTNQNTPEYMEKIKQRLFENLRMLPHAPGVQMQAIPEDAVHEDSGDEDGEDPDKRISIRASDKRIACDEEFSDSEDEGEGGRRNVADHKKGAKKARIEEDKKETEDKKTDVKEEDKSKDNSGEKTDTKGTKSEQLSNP
# procedure.details: Recombinant HDAC µSPOT microarray binding assay;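 further: Cellulose-bound peptide spots on slides incubated with six HDAC enzyme concentrations, binding intensity read, four-parameter variable-slope fit, EC50 is enzyme concentration giving half-maximal binding, in HEPES buffer pH 7.4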
# stated.conditions: HDAC2 microarray dose-response curve fit; X = Asuha; sheet Fig. 3 HDAC2
Label -1 if HillSlope (Value) falls below 0.6; label 1 in every other case.

substance: H2A 46-61 (GAPVYLAAVLEYLTAE; UniProt P0C0S8 47-62, looked up, fragment)
class.name: 1
//
substance: H2A 19-34 (SRAGLQFPVGRVHRLL; UniProt P04908 20-35, looked up, fragment)
class.name: 1
//
substance: H2A 37-52 (GNYSERVGAGAPVYLA; UniProt P04908 38-53, looked up, fragment)
class.name: 1
//
substance: H2A 100-115 (VTIAQGGVLPNIQAVL; UniProt P0C0S8 101-116, looked up, fragment)
class.name: 1
//
substance: H2A 16-31 (TRSSRAGLQFPVGRVH; microarray-immobilized; UniProt P0C0S8 17-32, looked up, fragment)
class.name: 1
//
substance: H2B 64-79 (SFVNDIFERIAGEASR; UniProt P62807 65-80, looked up, fragment)
class.name: -1
//
substance: H2B 67-82 (NDIFERIAGEASRLAH; UniProt P06899 68-83, looked up, fragment)
class.name: -1
//
substance: H2B 91-106 (SREIQTAVRLLLPGEL; UniProt P62807 92-107, looked up, fragment)
class.name: -1
//
substance: H2A 55-70 (LEYLTAEILELAGNAA; UniProt P0C0S8 56-71, looked up, fragment)
class.name: 1
//
substance: H2A 40-55 (AERVGAGAPVYLAAVL; UniProt P0C0S8 41-56, looked up, fragment)
class.name: -1
//
substance: H2A 49-64 (VYLAAVLEYLTAEILE; UniProt P0C0S8 50-65, looked up, fragment)
class.name: 1
//
substance: H2B 58-73 (AMGIMNSFVNDIFERI; UniProt P06899 59-74, looked up, fragment)
class.name: 1
//
substance: H2A 79-94 (IPRHLQLAIRNDEELN; UniProt P0C0S8 80-95, looked up, fragment)
class.name: 1
//
substance: H2B 61-76 (IMNSFVNDIFERIAGE; UniProt P62807 62-77, looked up, fragment)
class.name: 1
